- System Under Test: human CD3 (human, UniProt P07766 23-207; P04234 22-171; P09693 23-182)
- Sequence (P07766 23-207, chain 1 of 3): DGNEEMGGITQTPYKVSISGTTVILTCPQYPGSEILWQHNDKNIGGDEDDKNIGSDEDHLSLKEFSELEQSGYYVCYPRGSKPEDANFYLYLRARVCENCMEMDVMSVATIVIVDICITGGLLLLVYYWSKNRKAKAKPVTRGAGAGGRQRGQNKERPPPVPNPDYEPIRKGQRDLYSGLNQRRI
- Sequence (P04234 22-171, chain 2 of 3): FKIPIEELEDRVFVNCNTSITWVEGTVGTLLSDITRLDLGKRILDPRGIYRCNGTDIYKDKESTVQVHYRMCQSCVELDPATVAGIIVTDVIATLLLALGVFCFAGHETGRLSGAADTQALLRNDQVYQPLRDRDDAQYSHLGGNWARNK
- Sequence (P09693 23-182, chain 3 of 3): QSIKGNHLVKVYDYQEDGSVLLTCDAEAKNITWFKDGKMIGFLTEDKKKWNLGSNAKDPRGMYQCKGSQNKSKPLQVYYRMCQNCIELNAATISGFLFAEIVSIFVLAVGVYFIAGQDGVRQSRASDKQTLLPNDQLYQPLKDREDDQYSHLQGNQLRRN
- Method Summary: cell-based or functional assay
Value Kind: CD4 EC50 (nM); CD69/CD25 on human T cells, plate-coated antibody

# Binder, Value Observed
records = [
    ("mAb 116 (antibody, V domains shown) VH: EVQLVESGGGLVKTGGSLRLSCVASGFSFKKAWMNWVRQAPGKGLEWVGRIKRNSDGGTTDYAAPVKGRFTLSRDDSKNTLYLQMNSLKTEDTAVYYCTTLDSSSWYVGYYYMDVWGKGTTVTVSS VL: DIQMTQSPFSVSASVGDRVTITCRASQDINNWLAWYQQKPGKAPKILIYTASSLQSGVPSRFSGSGSGTDFTLTISSLQPEDFATYYCQQAHSLPITFGQGTRLEIK", 6.96),
    ("mAb 163 (antibody, V domains shown) VH: EVQLVESGGGLVKTGGSLRLSCVASGFSFKKAWMNWVRQVPGKGLEWVGRIKRNTDGGTADYAAPVKGRFTLSRDDSKKTLFLQMNSLKTEDTAVYYCTTLDSSSYYVGYYYMDVWGKGTTVTVSS VL: DIQMTQSPSSVSASVGDRVIITCRASQDINNWLAWYQQKPGKAPKLLIYTASSLQSGVPSRFSGSGSGTDFTLTIGSLQPEDFATYYCQQAHSLPITFGQGTRLEIK", 6.3),
]
